# TGT: CYP2B6 (Homo sapiens, UniProt P20813)
# Sequence (P20813 whole entry): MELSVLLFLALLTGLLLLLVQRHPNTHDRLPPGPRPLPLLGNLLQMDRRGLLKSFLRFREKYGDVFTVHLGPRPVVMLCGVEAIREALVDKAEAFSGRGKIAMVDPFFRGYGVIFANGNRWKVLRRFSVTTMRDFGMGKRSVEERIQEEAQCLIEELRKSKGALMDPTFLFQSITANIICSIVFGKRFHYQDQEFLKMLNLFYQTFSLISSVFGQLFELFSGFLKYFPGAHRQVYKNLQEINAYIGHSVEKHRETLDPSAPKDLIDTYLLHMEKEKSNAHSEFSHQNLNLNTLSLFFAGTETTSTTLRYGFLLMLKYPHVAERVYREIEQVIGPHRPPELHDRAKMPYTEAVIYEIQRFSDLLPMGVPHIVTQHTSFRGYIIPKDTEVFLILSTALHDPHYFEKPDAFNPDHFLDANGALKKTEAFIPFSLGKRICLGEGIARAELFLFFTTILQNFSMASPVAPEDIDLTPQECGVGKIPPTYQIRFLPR
# ASSAY SUMMARY: Inhibition of CYP2B6 in human liver microsomes assessed as enzyme-mediated metabolite formation at 0.1 uM using bupropion as substrate preincubated for 20 mins followed by substrate addition measured after 30 mins in presence of NADPH by LC-MS/MS analysis relative to control
# Type: ADME
# Design: scale not given: the % may be the effect or the level left
# STATED CONDITIONS: probe bupropion, read-out: Activity
METRIC: activity at 0.5 h, 0.1 µM (%)
// units = %; emit number, no label

*Q* Give the measured activity at 0.5 h, 0.1 µM of CCCCCCCC(=O)CCc1ccc(O)c(OC)c1 .
*A* 88.5

====

# TGT: Cytochrome P450 2E1 (Homo sapiens, UniProt P05181)
# ASSAY SUMMARY: Inhibition of CYP2E1 in human liver microsomes using chlorzoxazone as substrate preincubated for 10 mins followed by NADPH addition measured after 20 mins
# Type: ADME
METRIC: pIC50
pIC50 here is simply -log10 of the concentration when that concentration is written in mol/L.

[[record]]
test_smiles = "CCCCCCC[C@H](O)CC(=O)CCc1ccc(O)c(OC)c1"
test_result = 4.03


Field: next compound
*Q* Find the recorded pIC50 belonging to CCCCC/C=C/C(=O)CCc1ccc(O)c(OC)c1 and report it.
*A* 4.12

====

# TGT: UniProtKB P05177
# ASSAY SUMMARY: Inhibition of CYP1A2 in human liver microsomes using phenacetin as substrate by HPLC analysis
# Format: ADME
METRIC: IC50 (µM)
Lab book: enter the figure in µM, no units written.

*Q* Request the reported IC50 associated with CCCCC/C=C/C(=O)CCc1ccc(O)c(OC)c1 [SHOGAOL]
*A* 20.7

====

# TGT: CYP2C9 (Homo sapiens, UniProt P11712)
# ASSAY SUMMARY: Inhibition of CYP2C9 in human liver microsomes assessed as enzyme-mediated metabolite formation at 30 uM using diclofenac as substrate incubated for 5 mins followed by NADPH addition measured after 30 mins by LC-MS/MS analysis relative to control
# Format: ADME
# Design: scale not given: the % may be the effect or the level left
# STATED CONDITIONS: probe diclofenac, read-out: Activity
METRIC: activity at 0.5 h, 30 µM (%)
Lab book: enter the figure in %, no units written.

*Q* Hello, I am looking for reported activity at 0.5 h, 30 µM with CYP2C9 (Homo sapiens, UniProt P11712) for CCCCCCCC(=O)CCc1ccc(O)c(OC)c1 . Could you help?
*A* 30.9

====

# TGT: CYP3A4 (Homo sapiens)
# ASSAY SUMMARY: Inhibition of CYP3A4 in human liver microsomes assessed as enzyme-mediated metabolite formation at 30 uM using midazolam as substrate preincubated for 20 mins followed by substrate addition measured after 30 mins in presence of NADPH by LC-MS/MS analysis relative to control
# Type: ADME
# Design: scale not given: the % may be the effect or the level left
# STATED CONDITIONS: probe midazolam, read-out: Activity
METRIC: activity at 0.5 h, 30 µM (%)
Record the value in %, omitting the unit from your answer.

*Q* Consider the compound shown here: CCCCCCCC(=O)CCc1ccc(O)c(OC)c1 What is its recorded activity at 0.5 h, 30 µM?
*A* 97.6

====

# TGT: CYP2B6 (Homo sapiens, UniProt P20813)
# ASSAY SUMMARY: Inhibition of CYP2B6 in human liver microsomes assessed as enzyme-mediated metabolite formation at 1 uM using bupropion as substrate incubated for 5 mins followed by NADPH addition measured after 30 mins by LC-MS/MS analysis relative to control
# Format: ADME
# Parameters: scale not given: the % may be the effect or the level left
# STATED CONDITIONS: probe bupropion, read-out: Activity
METRIC: activity at 0.5 h, 1 µM (%)
Report only the number, with the unit % understood.

*Q* Need activity at 0.5 h, 1 µM of CCCCCCCC(=O)CCc1ccc(O)c(OC)c1 , thanks.
*A* 63.2

====

# TGT: CYP3A4 (Homo sapiens)
# ASSAY SUMMARY: Inhibition of CYP3A4 in human liver microsomes assessed as enzyme-mediated metabolite formation at 1 uM using testosterone as substrate preincubated for 20 mins followed by substrate addition measured after 30 mins in presence of NADPH by LC-MS/MS analysis relative to control
# Assay type: ADME
# Set-up: scale not given: the % may be the effect or the level left
# STATED CONDITIONS: probe testosterone, read-out: Activity
METRIC: activity at 0.5 h, 1 µM (%)
# value in %; strip the unit string

*Q* Which measured activity at 0.5 h, 1 µM value corresponds to CCCCCCCC(=O)CCc1ccc(O)c(OC)c1 ?
*A* 89.8

====

Measured pIC50 of individual entries
# TGT: Cytochrome P450 3A4 (Homo sapiens, UniProt P08684)
# Sequence (P08684 whole entry): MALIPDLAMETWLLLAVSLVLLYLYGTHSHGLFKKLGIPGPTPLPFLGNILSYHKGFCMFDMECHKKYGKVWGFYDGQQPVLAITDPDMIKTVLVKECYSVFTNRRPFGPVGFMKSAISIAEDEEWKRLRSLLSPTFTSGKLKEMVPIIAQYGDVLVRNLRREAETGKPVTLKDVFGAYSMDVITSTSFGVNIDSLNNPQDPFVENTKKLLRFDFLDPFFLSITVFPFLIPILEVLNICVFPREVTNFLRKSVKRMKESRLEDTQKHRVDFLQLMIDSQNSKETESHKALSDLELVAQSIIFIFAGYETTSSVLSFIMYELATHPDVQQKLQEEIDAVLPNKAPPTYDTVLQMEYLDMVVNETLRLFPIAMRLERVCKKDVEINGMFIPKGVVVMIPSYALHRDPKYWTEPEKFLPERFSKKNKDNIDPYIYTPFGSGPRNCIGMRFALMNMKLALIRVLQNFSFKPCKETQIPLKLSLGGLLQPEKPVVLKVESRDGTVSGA
# ASSAY SUMMARY: Inhibition of recombinant human CYP3A4 expressed in baculosomes using Vivid BOMR substrate red measured every 30 sec for 30 mins by fluorescence assay
# Format: ADME
Schema: pIC50 number; meaning minus log10 of the concentration expressed in molar units.

Solved cases (3 shown):
[[record]]
test_smiles = "CCCCCCC[C@H](O)CC(=O)CCc1ccc(O)c(OC)c1"
test_result = 4.98

[[record]]
test_smiles = "CCCCC[C@H](O)CC(=O)CCc1ccc(O)c(OC)c1"
test_result = 4.37

[[record]]
test_smiles = "CCCCC/C=C/C(=O)CCc1ccc(O)c(OC)c1"
test_result = 5.40


Now turn to the next molecule.
*Q* // lookup pIC50 | system=Cytochrome P450 3A4 (Homo sapiens, UniProt P08684) | key= CCCCCCCCC[C@H](O)CC(=O)CCc1ccc(O)c(OC)c1
*A* 4.60

====

# TGT: CYP2C19 (Homo sapiens, UniProt P33261)
# ASSAY SUMMARY: Inhibition of CYP2C19 in human liver microsomes assessed as enzyme-mediated metabolite formation at 0.1 uM using (S)-mephenytoin as substrate preincubated for 20 mins followed by substrate addition measured after 30 mins in presence of NADPH by LC-MS/MS analysis relative to control
# Type: ADME
# Design: scale not given: the % may be the effect or the level left
# STATED CONDITIONS: probe (S)-mephenytoin, read-out: Activity
METRIC: activity at 0.5 h, 0.1 µM (%)
Please give a number only; it is taken to be in %.

*Q* For the compound shown here, CCCCCCCC(=O)CCc1ccc(O)c(OC)c1 , give the reported activity at 0.5 h, 0.1 µM.
*A* 102

====

# TGT: Cytochrome P450 3A4 (Homo sapiens)
# ASSAY SUMMARY: Inhibition of CYP3A4 in human liver microsomes using midazolam as substrate
# Assay type: ADME
METRIC: pIC50
Convention used: pIC50 is expressed as -log10 of the molar concentration.

*Q* For Cytochrome P450 3A4 (Homo sapiens), provide pIC50 of CCCCC[C@H](O)CC(=O)CCc1ccc(O)c(OC)c1 please.
*A* 4.13

====

# TGT: Cytochrome P450 3A4 (Homo sapiens, UniProt P08684)
# ASSAY SUMMARY: Inhibition of recombinant human CYP3A4 expressed in baculosomes using Vivid BOMCC substrate blue measured every 30 sec for 30 mins by fluorescence assay
# Type: ADME
METRIC: IC50

[[record]]
test_smiles = "CCCCCCC[C@H](O)CC(=O)CCc1ccc(O)c(OC)c1"
metric = "IC50"
test_result = "8.7 µM"

[[record]]
test_smiles = "CCCCCCCCC[C@H](O)CC(=O)CCc1ccc(O)c(OC)c1"
metric = "IC50"
test_result = "20.8 µM"


*Q* Which IC50 is listed for CCCCC[C@H](O)CC(=O)CCc1ccc(O)c(OC)c1 ?
*A* 21.8 µM

====

# TGT: CYP3A4 (Homo sapiens, UniProt P08684)
# Sequence (P08684 whole entry): as above
# ASSAY SUMMARY: Inhibition of CYP3A4 in human liver microsomes assessed as enzyme-mediated metabolite formation at 0.1 uM using testosterone as substrate incubated for 5 mins followed by NADPH addition measured after 30 mins by LC-MS/MS analysis relative to control
# Format: ADME
# Design: scale not given: the % may be the effect or the level left
# STATED CONDITIONS: probe testosterone, read-out: Activity
METRIC: activity at 0.5 h, 0.1 µM (%)
Report only the number, with the unit % understood.

*Q* Give the reported activity at 0.5 h, 0.1 µM for CCCCCCCC(=O)CCc1ccc(O)c(OC)c1 (system: CYP3A4 (Homo sapiens, UniProt P08684)).
*A* 100
